TEST_METHOD_NOTES: Tissue concentrations of Formula I and its metabolites in Göttingen pigs after a single oral or intravenous dose (LC-MS/MS)
Format: in vivo
CONDITION_DESCRIPTION: both sexes, Göttingen, pig (minipig); spleen; single intravenous bolus of Formula I 25 mg/kg; 12 hpd; read-out: Tissue concentration, spleen
concentration at 12 h values, listed per item
Report the figure in ng/g without appending any unit label.

Reference set, count: 3
CC1(O)[C@@H](O)[C@@H](COP(=O)(O)OP(=O)(O)OP(=O)(O)O)O[C@H]1n1ccc(=O)[nH]c1=S (stereo partly shown) [Formula V]
47.5
C[C@H](NP(=O)(O)OC[C@H]1O[C@@H](n2ccc(=O)[nH]c2=S)C(C)(O)C1O)C(=O)O (stereo in doubt) [Formula II]
24.8
CC1(O)[C@@H](O)[C@@H](COP(=O)(O)O)O[C@H]1n1ccc(=O)[nH]c1=S (stereo partly shown) [Formula III]
58.9

API: the following record is the query input.
IN: Form field: reported concentration at 12 h of C[C@@]1(O)[C@H](O)[C@@H](CO)O[C@H]1n1ccc(=O)[nH]c1=S [Formula VI]
OUT: 49.2
